Biological target: BK channels heterologously expressed in Xenopus laevis oocytes (Homo sapiens)
Sequence (Q12791 whole entry): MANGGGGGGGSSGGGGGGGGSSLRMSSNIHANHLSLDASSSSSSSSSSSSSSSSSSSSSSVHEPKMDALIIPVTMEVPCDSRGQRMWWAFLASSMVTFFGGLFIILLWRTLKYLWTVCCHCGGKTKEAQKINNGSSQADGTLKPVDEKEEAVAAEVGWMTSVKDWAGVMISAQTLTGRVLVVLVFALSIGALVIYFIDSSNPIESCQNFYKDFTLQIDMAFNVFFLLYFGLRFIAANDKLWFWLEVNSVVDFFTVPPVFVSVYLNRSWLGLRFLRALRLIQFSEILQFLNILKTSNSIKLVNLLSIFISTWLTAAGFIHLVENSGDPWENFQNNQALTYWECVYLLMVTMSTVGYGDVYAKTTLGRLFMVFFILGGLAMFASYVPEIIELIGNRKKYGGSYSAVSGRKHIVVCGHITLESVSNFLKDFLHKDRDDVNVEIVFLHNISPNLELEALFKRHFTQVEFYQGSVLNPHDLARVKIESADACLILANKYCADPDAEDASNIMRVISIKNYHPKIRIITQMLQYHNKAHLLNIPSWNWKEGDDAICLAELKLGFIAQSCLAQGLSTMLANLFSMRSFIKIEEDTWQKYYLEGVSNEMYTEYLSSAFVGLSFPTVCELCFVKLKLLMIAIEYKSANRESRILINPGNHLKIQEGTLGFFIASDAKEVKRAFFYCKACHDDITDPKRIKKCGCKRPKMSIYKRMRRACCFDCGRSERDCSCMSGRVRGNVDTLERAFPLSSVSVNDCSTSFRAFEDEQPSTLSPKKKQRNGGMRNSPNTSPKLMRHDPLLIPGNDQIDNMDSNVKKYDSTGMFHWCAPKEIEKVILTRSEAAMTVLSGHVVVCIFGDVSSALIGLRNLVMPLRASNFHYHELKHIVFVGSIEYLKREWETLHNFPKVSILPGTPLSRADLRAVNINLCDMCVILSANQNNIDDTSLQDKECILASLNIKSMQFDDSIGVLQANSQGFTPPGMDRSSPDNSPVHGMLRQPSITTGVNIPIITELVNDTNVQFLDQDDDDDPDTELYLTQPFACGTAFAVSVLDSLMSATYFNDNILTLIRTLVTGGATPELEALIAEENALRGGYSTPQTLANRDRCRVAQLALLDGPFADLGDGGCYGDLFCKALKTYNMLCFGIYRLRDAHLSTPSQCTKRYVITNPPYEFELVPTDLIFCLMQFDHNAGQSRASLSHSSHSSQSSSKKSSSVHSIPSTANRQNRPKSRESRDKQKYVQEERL
Assay: BK channel opening activity, two-electrode voltage clamp in Xenopus laevis oocytes
Conditions: BKCa channels expressed in Xenopus oocytes; ramp −120 to +120 mV; 0.01-31.6 μM; ΔV at control conductance level of +100 mV; sigmoidal logistic fit; read-out: EC50 for the left-shift of the BK activation curve (ΔV)
Protocol: In this example the BK channel opening activity of Compound 12 (i.e. N-[5-Chloro-2-(1H-tetrazol-5-yl)-phenyl]-4-dipropylsulfamoyl-benzamide) is determined using BK channels heterologously expressed in Xenopus laevis oocytes. The electrical current through the BK channel was measured using conventional two-electrode voltage clamp. BK currents were activated by repeating ramp protocols. In brief, the membrane potential was continuously changed from −120 mV to +120 mV within a 2 s period. […]
Reported property: EC50
Express your answer as a number followed by its unit.

Prompt line: // returns reported EC50 for input CCCN(CCC)S(=O)(=O)c1ccc(C(=O)Nc2cc(Cl)ccc2-c2nnn[nH]2)cc1 [Compound 12]
Response line: 1300 nM

The origin of these recorded values is patent US20100286149A1.
